All figures here come from patent US7648999B2.

# tgt: PPARδ (GAL4-hPPARδ LBD) (Homo sapiens)
# Construct: A chimeric receptor expression plasmid (GAL4-hPPARδ LBD), a reporter plasmid (UASx4-TK-LUC); expressed in transfected cells; host or cells: CV-1 cells
# Sequence (Q03181 211-439 limits assumed): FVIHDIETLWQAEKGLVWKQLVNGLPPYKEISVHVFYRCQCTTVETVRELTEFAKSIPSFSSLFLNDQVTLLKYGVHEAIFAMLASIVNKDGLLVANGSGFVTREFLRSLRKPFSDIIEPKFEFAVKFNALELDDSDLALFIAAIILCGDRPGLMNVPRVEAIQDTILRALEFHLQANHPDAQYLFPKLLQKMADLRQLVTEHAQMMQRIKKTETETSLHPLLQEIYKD
# protocolText: PPARδ transactivation activity (GAL4 chimera luciferase reporter in CV-1 cells)
# Format: cell-based
# conditionsUsed: compound at 10^−7 M (value without parentheses)
Reported Relative activity for PPAR transactivation, δ values are given for each entry in this list.

In [3]: df
Out[3]:
                                   molecule     readoutvalue
0  Cc1cc(OCC(=O)O)ccc1C(=O)CCc1sc(-c2ccc(C(F)(F)F)cc2)nc1C(C)C  42 % of control
1  Cc1cc(C(=O)C=Cc2sc(-c3ccc(C(F)(F)F)cc3)nc2C(C)C)ccc1OC(C)(C)C(=O)O  61 % of control
2  CCCCCCc1nc(-c2ccc(C(F)(F)F)cc2)sc1CC=Cc1ccc(OC(C)(C)C(=O)O)c(C)c1  49 % of control
3  Cc1cc(C=CCc2sc(-c3ccc(C(F)(F)F)cc3)nc2C(C)C)ccc1OCC(=O)O  67 % of control
4  CCc1nc(-c2ccc(C(F)(F)F)cc2)sc1CCC(=O)c1ccc(OCC(=O)O)c(C)c1  57 % of control
5  CCCc1cc(C(=O)CCc2sc(-c3ccc(C(F)(F)F)cc3)nc2C(C)C)ccc1OCC(=O)O  70 % of control
6  Cc1cc(C(=O)C=Cc2sc(-c3ccc(C(F)(F)F)cc3)nc2C(C)C)ccc1OCC(=O)O  75 % of control
7  Cc1cc(OC(C)(C)C(=O)O)ccc1C(=O)CCc1sc(-c2ccc(C(F)(F)F)cc2)nc1C(C)C  57 % of control

Query string: Looking for the measured Relative activity for PPAR transactivation, δ of `CC(C)c1nc(-c2ccc(C(F)(F)F)cc2)sc1CCC(=O)c1ccc(OCC(=O)O)c(Cl)c1` , can you help?
Result string: 44 % of control

Query string: Looking for the measured Relative activity for PPAR transactivation, δ of `CC(C)c1nc(-c2ccc(C(F)(F)F)cc2)sc1CCC(=O)c1ccc(OC(C)(C)C(=O)O)c(Cl)c1` , can you help?
Result string: 66 % of control

Query string: Looking for the measured Relative activity for PPAR transactivation, δ of `CCCCCCc1nc(-c2ccc(C(F)(F)F)cc2)sc1CCC(=O)c1ccc(OCC(=O)O)c(C)c1` , can you help?
Result string: 56 % of control
